Test system: HEK-293T
ASSAY REMARKS: Incucyte cell viability with HEK293T; also: unitless GR value; below 1 slowed growth and below 0 cell loss
Type: toxicity, cell-based
EXPERIMENTAL CONTEXT: human, 18 h, 10 µM, compound concentration 10 uM, replicate number 2
Binary call on Growth Rate with cut-off 0.8: strictly below means fulfilled, and equality or higher means not fulfilled.

COMPOUND	CLASS NAME
O=C(O)CNC(=O)c1c(O)c2ccccc2n(Cc2ccccc2)c1=O	not fulfilled
CCc1ncnc(N2CCN(C(C)=O)CC2)c1C#Cc1ccc(N)nc1.Cl.Cl	fulfilled
CN(c1ccc(C(F)(F)F)cc1)S(=O)(=O)c1ccc(C(=O)Nc2nc(-c3ccccn3)cs2)cc1	not fulfilled
Cc1c(N2CCCC2)nc2ccc(Br)cc2c1C(=O)NC[C@H](CCC(=O)O)c1ccccc1Cl	fulfilled
Cc1onc(-c2ccc(F)cc2)c1COc1ccc(C(=O)N2CCS(=O)(=O)CC2)cn1	not fulfilled
CN1C(=O)Cc2ccc(-c3ccc(C[C@@H](C#N)NC(=O)[C@@H]4N[C@H]5CC[C@@H]4C5)c(F)c3)cc21	fulfilled
CCc1cnn2c(NCc3ccc[n+]([O-])c3)cc(N3CCCCC3CCO)nc12 (configuration not stated)	fulfilled
COc1cc(N2CCN(C)CC2)ccc1Nc1ncc2c(n1)N(C)c1ccccc1C(=O)N2CC(F)(F)F	fulfilled
COc1cc(F)ccc1-c1cc(Nc2cc(CS(C)(=N)=O)ccn2)ncc1F (configuration not stated)	fulfilled
N[C@H](C(=O)O)[C@@H]1CC(Cl)=NO1	fulfilled
COc1ccc(OC(=O)N(CC(=O)O)Cc2ccc(OCCc3nc(-c4ccccc4)oc3C)cc2)cc1	fulfilled
Cc1c(-c2c(F)cc(C(N)=O)c3[nH]c4c(c23)CC[C@H](C(C)(C)O)C4)cccc1-n1c(=O)c2cccc(F)c2n(C)c1=O	fulfilled
CCOC(=O)C1Cc2ccccc2CN1C(=O)c1ccc(SC)s1 (configuration not stated)	fulfilled
O=C(O)[C@]1(Cc2cccc(Nc3nccs3)n2)CC[C@@H](Oc2cccc(Cl)c2F)CC1	fulfilled
CCS(=O)(=O)c1ccc(OC)c(Nc2ncc(-c3cccc(F)c3)o2)c1 [GW621970X]	fulfilled
CN(C)CCCNc1ccnc(Nc2cccc(Cl)c2)n1	fulfilled
Cn1cc(-c2cnc3ccc4ccc(CS(=O)(=O)NCc5ccccn5)cc4c(=O)c3c2)cn1	fulfilled
CN1CCCN(C(=O)c2cccc(-c3ccc(/C=C4/C(=O)Nc5ccc(Cl)cc54)o3)c2)CC1	fulfilled
CCC(=O)Nc1cc(Nc2cc(NC3CC3)n3ncc(C#N)c3n2)ccc1C	not fulfilled
CCOC(=O)/N=C(\N)c1ccc(OCc2cccc(COc3ccc(C(C)(C)c4ccc(OC(=O)OCC)cc4)cc3)c2)cc1	fulfilled
CC(C)c1cnn2c(NCc3ccccc3)cc(NCCCCCCN)nc12.Cl	fulfilled
C=C(C)[C@H]1CN[C@H](C(=O)O)[C@H]1CC(=O)O	not fulfilled
c1cc(-c2cnn3cc(-c4ccc(N5CCNCC5)cc4)cnc23)c2cccnc2c1	fulfilled
Cc1ccc2c(N)c(C(=O)NC3CCc4cc(N5CC6CCC(C5)N6)ccc4C3)sc2n1.O=CO (configuration not stated)	fulfilled
CNC1(C)C2CCC(C2)C1(C)C.Cl (configuration not stated) [MECAMYLAMINE HYDROCHLORIDE]	not fulfilled
Cc1cccc([C@H]2CC[C@@H](N3CCN(c4cccnc4)CC3)CC2)c1.O=C(O)C(F)(F)F.O=C(O)C(F)(F)F	fulfilled
COc1ccccc1-n1nc(C2CC(C)(C)OC(C)(C)C2)cc1-c1ccc(Cl)cc1	fulfilled
CC[C@H](CO)Nc1nc(Nc2cccc(-c3ccccn3)c2)c2ncn(C(C)C)c2n1.Cl.O	fulfilled
CC(C)(O)c1cnc(N2C[C@@]3(CCC[C@](C)(Cn4cnc5ccc(C#N)cc54)C3)OC2=O)cn1	fulfilled
Cc1cc2ncnn2cc1Nc1ncc2c(n1)n(C1CCOCC1)c(=O)n2C	not fulfilled
CCC(C(=O)Nc1ccc(-c2cc3ccccc3s2)c(C(N)=O)c1)c1nccs1 (configuration not stated)	fulfilled
CN1C(=O)c2ccccc2N(C)c2nc(Nc3cnn(C4CCNCC4)c3)ncc21	fulfilled
